Origin of values: patent US12528802B2

Measured inhibition at 10 µM by item
biological target: glucosylceramide synthase (Homo sapiens, UniProt Q16739); construct: made in house; host or cells: Expi293F cells (transient expression, pcDNA3.3-TOPO vector); microsome fraction used as enzyme source; assay: Glucosylceramide synthase (GCS) enzyme assay, microsome fraction, C8 glucosylceramide quantified by Rapidfire MS/MS; type: biochemical; settings: test compound 10 μM; 1.7 μM UDP-glucose, 3 μM C8 ceramide; room temperature 60 min; read-out: GCS enzyme inhibitory rate at 10 μM (%) (% of control)
Sequence (Q16739 whole entry): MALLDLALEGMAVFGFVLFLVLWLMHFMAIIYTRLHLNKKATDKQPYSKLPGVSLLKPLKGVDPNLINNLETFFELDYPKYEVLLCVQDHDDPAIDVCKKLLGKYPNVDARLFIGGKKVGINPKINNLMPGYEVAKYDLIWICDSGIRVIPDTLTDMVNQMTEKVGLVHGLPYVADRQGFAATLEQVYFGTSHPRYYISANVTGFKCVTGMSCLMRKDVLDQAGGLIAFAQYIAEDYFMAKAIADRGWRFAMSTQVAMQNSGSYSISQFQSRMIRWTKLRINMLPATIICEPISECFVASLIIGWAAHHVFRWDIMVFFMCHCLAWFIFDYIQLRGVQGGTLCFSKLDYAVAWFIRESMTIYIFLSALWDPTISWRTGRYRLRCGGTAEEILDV
Write the answer as a number in %, unit excluded.

compound	unit.of.measure	measured.result
O=C1c2ccnc(-c3ccccc3OCC(F)(F)F)c2CN1c1ccc(O)cc1	%	76

For Cn1nc(-c2ccccc2OCC(F)(F)F)c2c1CN(c1ccc(F)cc1)C2 the compound record lists inhibition at 10 µM as 83

response.value for O=C1c2ccnc(-c3ccc(F)cc3OCC(F)(F)F)c2CN1c1ccc(C2(O)CC2)cc1 (field: inhibition at 10 µM) = 94

The compound CC(O)c1ccc(N2Cc3c(ccnc3-c3ccc(F)cc3OCC(F)(F)F)C2=O)cc1 (racemic) showed inhibition at 10 µM equal to 99

Looking up O=C1c2ccnc(-c3ccc(F)cc3OCC(F)(F)F)c2CN1c1ccc(OC2CCOCC2)cc1 , I see its inhibition at 10 µM listed as 100

Per the records, this compound ( CCC(=O)c1ccc(N2Cc3c(ccnc3-c3ccccc3OCC(F)(F)F)C2=O)cc1 ) has inhibition at 10 µM equal to 98

Value of measured inhibition at 10 µM for the entry O=C1c2ccnc(-c3ccccc3OCC(F)(F)F)c2CN1c1ccc(C(O)(C(F)(F)F)C(F)(F)F)cc1 : 100

inhibition at 10 µM recorded for this compound, O=C1c2ccnc(-c3ccc(F)cc3OCC(F)F)c2CN1c1ccc(C2(O)CCC2)cc1 , is 99

====

# GCS enzyme inhibitory rate at 10 μM (%) (% of control) values compiled below
biological target: glucosylceramide synthase (Homo sapiens, UniProt Q16739); construct: made in house; host or cells: Expi293F cells (transient expression, pcDNA3.3-TOPO vector); microsome fraction used as enzyme source; experiment: Glucosylceramide synthase (GCS) enzyme assay, microsome fraction, C8 glucosylceramide quantified by Rapidfire MS/MS; assay type: biochemical; details: test compound 10 μM; 1.7 μM UDP-glucose, 3 μM C8 ceramide; room temperature 60 min
Hi! Could you send only the number? It should be in %, unit omitted.

compound	measured.result
O=C1c2ccnc(-c3ccccc3OCC(F)(F)F)c2CN1c1ccc(C(O)C(F)(F)F)nc1 (single isomer, unassigned) [Example 277]	98
O=C1c2ccnc(-c3ccc(F)cc3OCC(F)(F)F)c2CN1c1ccc(C(O)C(F)(F)F)cc1 (single isomer, unassigned) [Example 286]	96
O=C1c2ccnc(-c3ccc(F)cc3OCC(F)(F)F)c2CN1c1ccc(C2(O)CCOC2)cc1 (single isomer, unassigned) [Example 263]	98
O=C1c2ccnc(-c3ccc(F)cc3OCC(F)(F)F)c2CN1c1ccc(C(O)C(F)F)cc1 (single isomer, unassigned) [Example 279]	99
O=C1c2ccnc(-c3ccc(F)cc3OCC(F)(F)F)c2CN1c1ccc(C2(O)CCOC2)c(F)c1 (racemic) [Example 238]	95
O=C1c2ccnc(-c3ccc(F)cc3OCC(F)(F)F)c2CN1c1ccc(C2(O)CCOC2)cn1 (single isomer, unassigned) [Example 301]	97
Cc1cncc(OCC(F)(F)F)c1-c1nccc2c1CN(c1ccc(OC(F)F)cc1)C2=O [Example 198]	99
O=C1c2ccnc(-c3ccc(F)cc3OCC(F)(F)F)c2CN1c1ccc(C2(O)CCOC2)c(F)c1 (racemic) [Example 235]	97

Now turn to the next compound.
glucosylceramide synthase (Homo sapiens, UniProt Q16739) GCS enzyme inhibitory rate at 10 μM (%) (% of control) of O=C1c2ccnc(-c3ccc(F)cc3OCC(F)(F)F)c2CN1c1ccc(C2(O)CCOC2)cc1 (single isomer, unassigned) [Example 264] is 98
